ASSAYED_SYSTEM: T1, Claudin18.2 on cells (human, UniProt P56856-2 1-261)
T1 construct: whole, on cells; the cell line of each result is named under assay or readout
ASSAY_REMARKS: flow cytometry on NUGC4 cells, antibody at 3 µg/mL
Measured mean fluorescence intensity, listed per entry for reference.
Just the number.

Previously resolved entries follow.
CLD389-CA802-IgG1 (antibody, V domains shown, Complete IgG1 made in HEK293 cells) VH: QVQLVESGGGVVQPGRSLRLSCAASGFTFSSYAMHWVRQVPGKGLEWVAIISYDGSIKYYADSVKGQFTISRDNSKNTLSLQMNSLRPEDTAVYYCARDPTMVRGVRGMDVWGQGTTVTVSS VL: DIQMTQSPSSLSASVGDRVTITCRASQGIRNDLGWYQQKPGKAPKLLIYAASSLQSGVPSRFSGSGSGTDFTLTISSLQPEDFATYYCLQDYNYPLTFGGGTKLEIKR; 113000
CLD389-279-IgG1 (antibody, V domains shown, Complete IgG1 made in HEK293 cells; also called C279; CLD389-C279) VH: EVQLVQSGGGVVQPGRSLRLSCAASGFTFSNYAMHWVRQAPGKGLEWVAVISYDGSNKYYADSVKGRFTISRDNSKNTLYLQMNSLRAEDTAVYYCARELRFFDWLLGRAFDIWGQGTMVTVSS VL: EIVMTQSPPSLSASVGDRVTITCRASQGIRNDLGWYQQKPGKAPKLLIYAASSLQSGVPSRFSGSGSGTDFTLTISSLQPEDFATYYCLQDYNYPWTFGQGTKLEIKR; 158000

Query string: Tell me the measured mean fluorescence intensity of CLDQ1-CA841-IgG1 (antibody, V domains shown, Complete IgG1 made in HEK293 cells) VH: QVQLVQSGAEVKKPGSSVKVSCKASGGTFSSYAISWVRQAPGQGLEWMGRIIPILGIANYAQKFQGRVTVTADKSTSTAYMELSSLRSEDTAVYYCARERDNWDPYYYYYGMDVWGQGTTVTVSS VL: DIQMTQSPSTLSASVGDRVTITCRASQSINSWLAWYQQKPGKAPKLLIYKASSLESGVPSRFSGSGSGTEFTLTISSLQPDDFATYYCQQYNSFPLTFGGGTKVEIKR , please.
Result string: 32400

FYI, the data here is from patent US20220204609A1.
